- EXPERIMENT_SUMMARY: PSAC antagonists in infected red cells, primary screen, cell-based, P. falciparum Indochina, OD700, 18 h (AID 1157)
- CONDITIONS_USED: P. falciparum Indochina infected erythrocytes, osmotic lysis OD700, 18 h; higher = more signal, called active from +8 up or from −8 down
Y means recorded z-score is 0.6 or above; N means it is below 0.6.

Record excerpt, results attached:
COMPOUND	CATEGORY
CCOC(=O)C[C@H]1[C@H](OC(=O)c2cc3ccccc3oc2=O)[C@@H](NC(=O)Cc2ccc(OC)cc2)c2cc(OCCCO)ccc2N1C(=O)c1ccccc1	N
O=C1O[C@H](c2ccccc2)[C@H](c2ccccc2)N2[C@H]1[C@@H](C(=O)Nc1nc3ccccc3s1)[C@]1(C(=O)Nc3ccc(C#CCCO)cc31)[C@H]2c1ccc(OCCO)cc1	Y
CC(C)c1ccc(NN2C(C(O)C(c3ccccc3)c3ccccc3)C=CC3C(=O)N(c4ccccc4)C(=O)C32)cc1 (centres undefined)	Y
Cc1ccc(S[C@]2(C(=O)NCCN3CCOCC3)CC(=O)N(Cc3ccccc3Cl)[C@@H]2c2ccc(CO)cc2)cc1	N
Cc1ccc(S[C@]2(C(=O)NC3CC3)CC(=O)N(C3Cc4ccccc4C3)[C@@H]2c2ccc(CO)cc2)cc1	N

(Q) Determine whether measured z-score meets or exceeds 0.6 for C=CC[C@]1(C(=O)N2CCCCC2)N=C(c2ccc(OCCCO)cc2)O[C@H]1c1ccccc1
(A) Y

(Q) Determine whether measured z-score meets or exceeds 0.6 for COc1cc(OC)c(C(O)C2C=CC3C(=O)NC(=O)C3N2Nc2ccc(Cl)cc2Cl)cc1Br (centres undefined)
(A) Y

(Q) Determine whether measured z-score meets or exceeds 0.6 for C=CCC(OC(C)=O)[C@@H]1[C@@H](N(Cc2cccc3ccccc23)C(=O)c2ccc(-c3ccccc3)cc2)c2cc(OCCCO)ccc2N1C(=O)Cc1ccc(OC)cc1 (some centres undefined)
(A) N

(Q) Determine whether measured z-score meets or exceeds 0.6 for COc1ccc([Si](C)(C)[C@H]2[C@H](CCO)O[C@@]3(C(=O)N(C)c4c(Br)cc(C)cc43)[C@@H]2C)cc1
(A) Y

(Q) Determine whether measured z-score meets or exceeds 0.6 for CCCN1C(=O)[C@]2(CCS(=O)(=O)c3ccccc3)N=C(c3ccc(OCCCO)cc3)O[C@@H]2c2ccccc21
(A) N
